Origin of measurements: PubChem BioAssay AID1963982

- Test system: 313798-341-R-J2-PDC spheroids, viability
- ASSAY_OVERVIEW: Anticancer human tumor 313798-341-R-J2-PDC patient-derived cervical squamous cell carcinoma cell line growth inhibition [PI3K]
- TEST_SETTINGS: compound 10 µM; stronger effect = lower value; spheroids with HUVEC and MSC
Documented viability, T/C across a set of compounds

- COMPOUND: "CNC(=O)c1ccc(N2C(=S)N(c3ccc(C#N)c(C(F)(F)F)c3)C(=O)C2(C)C)cc1F"
  viability, T/C: "102% [middle of 4 runs]"
- COMPOUND: "Cc1nc(NC(=O)N2CCCC2C(N)=O)sc1-c1ccnc(C(C)(C)C(F)(F)F)c1 (configuration not stated)"
  viability, T/C: "36.2% [middle of 8 runs]"
- COMPOUND: "CC(Nc1ncnc2nc[nH]c12)c1cc2cccc(Cl)c2c(=O)n1-c1ccccc1 (configuration not stated)"
  viability, T/C: "89.6% [middle of 8 runs]"

[Q] Could you tell me which viability, T/C is on file for CCCS(=O)(=O)Nc1ccc(F)c(C(=O)c2c[nH]c3ncc(-c4ccc(Cl)cc4)cc23)c1F ?
[A] 18.7% [middle of 4 runs]

[Q] Another compound to look at: CC(C)NCC(C(=O)N1CCN(c2ncnc3c2C(C)CC3O)CC1)c1ccc(Cl)cc1 (configuration not stated)
[A] 31.5% [middle of 4 runs]

[Q] Another compound to look at: C#Cc1c(F)ccc2cc(O)cc(-c3ncc4c(N5CC6CCC(C5)N6)nc(OCC56CCCN5CC(F)C6)nc4c3F)c12 (configuration not stated)
[A] 95.2% [middle of 4 runs]

[Q] Another compound to look at: Cn1ncc(Cl)c1-c1cc(C(=O)NC(CN)Cc2cccc(F)c2)sc1Cl (configuration not stated)
[A] 34.5% [middle of 4 runs]

====

Documented viability, T/C across a set of compounds
- System: 313798-341-R-J2-PDC spheroids, viability
- ASSAY_OVERVIEW: Anticancer human tumor 313798-341-R-J2-PDC cell line growth inhibition [PI3K];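 also: spheroids exposed to compounds for seven days; 100% = DMSO vehicle control viability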
- TEST_SETTINGS: second compound 0.1 µM; first compound 0.316 µM; stronger effect = lower value; spheroids with HUVEC and MSC
- Excerpt: Combinatorial screen of targeted agents with the PI3K inhibitors inavolisib, alpelisib, duvelisib, and copanlisib in multi-cell type tumor spheroids A high-throughput screen of multi-cell type tumor spheroids was designed to identify active combinations of targeted small molecules and PI3K pathway inhibitors. […] Compounds. […] If the clinical Cmax for an agent had not been determined, the highest concentration tested was 10 microM. […]
Record the value in %, omitting the unit from your answer.

- COMPOUND: "CC(C)NCC(C(=O)N1CCN(c2ncnc3c2C(C)CC3O)CC1)c1ccc(Cl)cc1 (stereo not given) + CC(Nc1ncnc2nc[nH]c12)c1cc2cccc(Cl)c2c(=O)n1-c1ccccc1"
  STUDY_SYSTEM: "313798-341-R-J2-PDC spheroids, viability"
  viability, T/C, %: 90.2
- COMPOUND: "CC(Cn1ccc(-c2ccc(C#N)c(Cl)c2)n1)NC(=O)c1cc(C(C)O)[nH]n1 (stereo not given) + CC(Nc1ncnc2nc[nH]c12)c1cc2cccc(Cl)c2c(=O)n1-c1ccccc1"
  STUDY_SYSTEM: "313798-341-R-J2-PDC spheroids, viability"
  viability, T/C, %: 104
- COMPOUND: "CCN1CCN(Cc2ccc(Nc3ncc(F)c(-c4cc(F)c5nc(C)n(C(C)C)c5c4)n3)nc2)CC1 + COc1c(OCCCN2CCOCC2)ccc2c3n(c(=NC(=O)c4cnc(N)nc4)nc12)CCN3"
  STUDY_SYSTEM: "313798-341-R-J2-PDC spheroids, viability"
  viability, T/C, %: 41.9

We next turn to a different compound, shown below.
[Q] Could you tell me which viability, T/C is on file for C#Cc1c(F)ccc2cc(O)cc(-c3ncc4c(N5CC6CCC(C5)N6)nc(OCC56CCCN5CC(F)C6)nc4c3F)c12 (stereo not given) + Cc1nc(NC(=O)N2CCCC2C(N)=O)sc1-c1ccnc(C(C)(C)C(F)(F)F)c1 ?
[A] 112

====

- Tested on: 313798-341-R-J2-PDC spheroids, viability
- ASSAY_OVERVIEW: Anticancer human tumor 313798-341-R-J2-PDC cell line growth inhibition [PI3K]; active means viability on the fitted dose curve at most 10% of control; inactive means the rest;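 also: spheroids exposed to compounds for seven days; 100% = DMSO vehicle control viability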
- TEST_SETTINGS: second compound 1 µM; first compound 10 µM; spheroids with HUVEC and MSC
Reply using exactly one outcome from 1 (active), -1 (inactive)

- COMPOUND: "CC1(C)CCC(Nc2ncc(C(F)(F)F)c(-c3c[nH]c4c(P(C)(C)=O)c(C#N)ccc34)n2)CN1 (stereo unspecified) + CC(Nc1ccc2c(c1)OCCn1cc(N3C(=O)OCC3C(F)F)nc1-2)C(N)=O"
  STUDY_SYSTEM: "313798-341-R-J2-PDC spheroids, viability"
  CATEGORY_LABEL: -1
- COMPOUND: "C=CC(=O)N1CCN(c2nc(=O)n(-c3c(C)ccnc3C(C)C)c3nc(-c4c(O)cccc4F)c(F)cc23)C(C)C1 (stereo unspecified) + CC(Nc1ccc2c(c1)OCCn1cc(N3C(=O)OCC3C(F)F)nc1-2)C(N)=O"
  STUDY_SYSTEM: "313798-341-R-J2-PDC spheroids, viability"
  CATEGORY_LABEL: -1
- COMPOUND: "C=CC(=O)N1CCN(c2nc(=O)n(-c3c(C)ccnc3C(C)C)c3nc(-c4c(O)cccc4F)c(F)cc23)C(C)C1 (stereo unspecified) + CC(Nc1ncnc2nc[nH]c12)c1cc2cccc(Cl)c2c(=O)n1-c1ccccc1"
  STUDY_SYSTEM: "313798-341-R-J2-PDC spheroids, viability"
  CATEGORY_LABEL: -1
- COMPOUND: "CNC(=O)c1ccc(N2C(=S)N(c3ccc(C#N)c(C(F)(F)F)c3)C(=O)C2(C)C)cc1F + Cc1nc(NC(=O)N2CCCC2C(N)=O)sc1-c1ccnc(C(C)(C)C(F)(F)F)c1"
  STUDY_SYSTEM: "313798-341-R-J2-PDC spheroids, viability"
  CATEGORY_LABEL: -1

Alright, here's another compound for you.
[Q] Field: outcome | Entry: CC(Cn1ccc(-c2ccc(C#N)c(Cl)c2)n1)NC(=O)c1cc(C(C)O)[nH]n1 (stereo unspecified) + CC(Nc1ccc2c(c1)OCCn1cc(N3C(=O)OCC3C(F)F)nc1-2)C(N)=O
[A] -1

====

Documented viability, T/C across a set of compounds
- Test system: 313798-341-R-J2-PDC spheroids, viability
- ASSAY_OVERVIEW: Anticancer human tumor 313798-341-R-J2-PDC cell line growth inhibition [PI3K];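 also: spheroids exposed to compounds for seven days; 100% = DMSO vehicle control viability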
- TEST_SETTINGS: second compound 0.1 µM; first compound 10 µM; stronger effect = lower value; spheroids with HUVEC and MSC
Record the value in %, omitting the unit from your answer.

[Q] Could you tell me which viability, T/C is on file for CC1(C)CCC(CN2CCN(c3ccc(C(=O)NS(=O)(=O)c4ccc(NCC5CCOCC5)c([N+](=O)[O-])c4)c(Oc4cnc5[nH]ccc5c4)c3)CC2)=C(c2ccc(Cl)cc2)C1 + CC(Nc1ccc2c(c1)OCCn1cc(N3C(=O)OCC3C(F)F)nc1-2)C(N)=O ?
[A] 17

[Q] Another compound to look at: Cn1nccc1Nc1nccc(-c2ccn(C(CO)c3ccc(Cl)c(F)c3)c(=O)c2)n1 (stereo not given) + CC(Nc1ncnc2nc[nH]c12)c1cc2cccc(Cl)c2c(=O)n1-c1ccccc1
[A] 94.2

====

- Test system: 313798-341-R-J2-PDC spheroids, viability
- ASSAY_OVERVIEW: Anticancer human tumor 313798-341-R-J2-PDC cell line growth inhibition [PI3K];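 also: spheroids exposed to compounds for seven days; 100% = DMSO vehicle control viability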
- TEST_SETTINGS: compound 0.1 µM; stronger effect = lower value; spheroids with HUVEC and MSC
PROPERTY_LABEL: viability, T/C

- COMPOUND: "C[C@@H](NC(=O)c1ncnc(N)c1Cl)c1ncc(C(=O)Nc2cc(C(F)(F)F)c(Cl)cn2)s1"
  PROPERTY_LABEL: "viability, T/C"
  RESULT: "102% [middle of 4 runs]"

[Q] Could you tell me which viability, T/C is on file for C=CC(=O)N1CCN(c2nc(=O)n(-c3c(C)ccnc3C(C)C)c3nc(-c4c(O)cccc4F)c(F)cc23)C(C)C1 (centres undefined) ?
[A] 95% [middle of 4 runs]

[Q] Another compound to look at: Cn1nccc1Nc1nccc(-c2ccn(C(CO)c3ccc(Cl)c(F)c3)c(=O)c2)n1 (centres undefined)
[A] 95.3% [middle of 4 runs]

[Q] Another compound to look at: CC(Nc1ncnc2nc[nH]c12)c1cc2cccc(Cl)c2c(=O)n1-c1ccccc1 (centres undefined)
[A] 95.1% [middle of 8 runs]

[Q] Another compound to look at: CNC(=O)c1ccc(N2C(=S)N(c3ccc(C#N)c(C(F)(F)F)c3)C(=O)C2(C)C)cc1F
[A] 99.5% [middle of 4 runs]

[Q] Another compound to look at: CCCS(=O)(=O)Nc1ccc(F)c(C(=O)c2c[nH]c3ncc(-c4ccc(Cl)cc4)cc23)c1F
[A] 102% [middle of 4 runs]

[Q] Another compound to look at: C#Cc1c(F)ccc2cc(O)cc(-c3ncc4c(N5CC6CCC(C5)N6)nc(OCC56CCCN5CC(F)C6)nc4c3F)c12 (centres undefined)
[A] 105% [middle of 4 runs]

[Q] Another compound to look at: Cn1ncnc1[C@H]1c2n[nH]c(=O)c3cc(F)cc(c23)N[C@@H]1c1ccc(F)cc1
[A] 89% [middle of 4 runs]

[Q] Another compound to look at: CC(C)NCC(C(=O)N1CCN(c2ncnc3c2C(C)CC3O)CC1)c1ccc(Cl)cc1 (centres undefined)
[A] 96.4% [middle of 4 runs]
